- System name: Fes (UniProt P07332)
- Sequence (P07332 whole entry, looked up): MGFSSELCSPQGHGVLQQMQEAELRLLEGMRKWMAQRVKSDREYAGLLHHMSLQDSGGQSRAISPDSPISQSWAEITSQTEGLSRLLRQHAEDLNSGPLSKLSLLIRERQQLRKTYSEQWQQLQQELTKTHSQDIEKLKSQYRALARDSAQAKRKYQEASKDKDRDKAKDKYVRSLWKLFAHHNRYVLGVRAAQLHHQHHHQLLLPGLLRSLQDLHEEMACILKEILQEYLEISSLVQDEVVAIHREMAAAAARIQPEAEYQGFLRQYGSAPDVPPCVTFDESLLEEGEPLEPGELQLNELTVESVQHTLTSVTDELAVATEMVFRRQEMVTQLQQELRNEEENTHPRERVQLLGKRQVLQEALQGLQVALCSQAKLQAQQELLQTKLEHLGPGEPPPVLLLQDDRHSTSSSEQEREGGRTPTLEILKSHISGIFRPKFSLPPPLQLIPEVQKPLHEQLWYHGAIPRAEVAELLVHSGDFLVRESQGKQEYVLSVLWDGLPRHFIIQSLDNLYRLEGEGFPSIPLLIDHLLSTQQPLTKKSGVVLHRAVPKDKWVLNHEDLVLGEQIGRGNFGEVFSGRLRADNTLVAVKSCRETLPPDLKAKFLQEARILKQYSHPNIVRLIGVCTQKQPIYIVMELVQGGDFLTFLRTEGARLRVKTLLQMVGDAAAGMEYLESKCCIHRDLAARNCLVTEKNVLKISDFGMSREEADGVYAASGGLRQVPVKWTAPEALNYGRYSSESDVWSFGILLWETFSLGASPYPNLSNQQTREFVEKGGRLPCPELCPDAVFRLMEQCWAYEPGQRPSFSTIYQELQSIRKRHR
- Experiment notes: phosphorylation enrichment, bacterial display (enrichment ratio); higher = better substrate or ligand; peptides without Tyr show the background;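 further: 11-residue human phosphosite peptides and single-mutation variants displayed on the E. coli surface, counted by deep sequencing, each peptide's frequency after selection divided by its frequency in the unselected input library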;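 further: frequency after pTyr selection over input frequency; kinase dosed for 20-30% of maximal phosphorylation in three min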
A collection of sequences and their measured phosphorylation enrichment
Assay endpoint: phosphorylation enrichment

query_sequence="TFEPNYGTVKR [RAPGEF6_Y1447_Q1452R_YF]" assay_endpoint="phosphorylation enrichment" readout_value=0.586
query_sequence="FRARAYSFRGP [CHGA_Y381_G382S]" assay_endpoint="phosphorylation enrichment" readout_value=0.591
query_sequence="RGESFYQDRMN [RARS_Y338]" assay_endpoint="phosphorylation enrichment" readout_value=0.996
query_sequence="CTTIHNNYMCN [TP53_Y234_Y234N]" assay_endpoint="phosphorylation enrichment" readout_value=0.725
query_sequence="FSALDYKIFFF [WDPCP_Y210_L205F_YF]" assay_endpoint="phosphorylation enrichment" readout_value=1.64
query_sequence="FGMQLYQKFMH [GRB14_Y347_N349K_YF]" assay_endpoint="phosphorylation enrichment" readout_value=1
query_sequence="QGIFGYHHHMQ [UFSP2_Y287_Y290H_YF]" assay_endpoint="phosphorylation enrichment" readout_value=1.04
query_sequence="RGDSAYHSQRH [ERBB3_Y1132]" assay_endpoint="phosphorylation enrichment" readout_value=0.731
query_sequence="EEGNPYFSSTR [MCCC2_Y520_A524T_YF]" assay_endpoint="phosphorylation enrichment" readout_value=0.814
query_sequence="FLNSIYQSRDE [ROS1_Y2227_K2228Q]" assay_endpoint="phosphorylation enrichment" readout_value=0.764
query_sequence="KTTILHKLKLG [ARF1_Y35_Y35H]" assay_endpoint="phosphorylation enrichment" readout_value=0.739
query_sequence="EMFNPCYGLFE [NEDD4L_Y679_Y679C]" assay_endpoint="phosphorylation enrichment" readout_value=1.49
query_sequence="PQGVGYPQQQQ [EP300_Y2219_P2221Q]" assay_endpoint="phosphorylation enrichment" readout_value=0.921
query_sequence="DEEDFYQGSME [ASCC1_Y36]" assay_endpoint="phosphorylation enrichment" readout_value=1.54
query_sequence="MSRDVYSTDCY [NTRK2_Y702_Y706C]" assay_endpoint="phosphorylation enrichment" readout_value=1.14
query_sequence="IDAVCYFRMEN [NPHS2_Y194_I192V_YF]" assay_endpoint="phosphorylation enrichment" readout_value=1.99
query_sequence="YFVVEYRDQKP [MUC17_Y4332]" assay_endpoint="phosphorylation enrichment" readout_value=1.66
query_sequence="WCKPLYFSCAV [MMS22L_Y28_P27L]" assay_endpoint="phosphorylation enrichment" readout_value=1.21
query_sequence="CNNFIYGGCRG [SPINT2_Y163]" assay_endpoint="phosphorylation enrichment" readout_value=0.699
query_sequence="RGYRQDAYDGK [HLA-A_Y140]" assay_endpoint="phosphorylation enrichment" readout_value=0.677
query_sequence="CTTIHYNYMCT [TP53_Y234_N239T]" assay_endpoint="phosphorylation enrichment" readout_value=1
query_sequence="IRSGIYFKPES [L2HGDH_Y102_H98R_YF]" assay_endpoint="phosphorylation enrichment" readout_value=0.95
query_sequence="PLDGEYFILQI [TP53_Y327_T329I]" assay_endpoint="phosphorylation enrichment" readout_value=2
query_sequence="CSHKFYGKQCC [ADAMTS16_Y1211]" assay_endpoint="phosphorylation enrichment" readout_value=0.673
query_sequence="SRVTQYERDFE [SNX1_Y463]" assay_endpoint="phosphorylation enrichment" readout_value=0.954
query_sequence="QKINKYLTVPA [SLC9A1_Y683_N682K]" assay_endpoint="phosphorylation enrichment" readout_value=0.625
query_sequence="PLDAEYFTLQI [TP53_Y327_G325A]" assay_endpoint="phosphorylation enrichment" readout_value=1.63
query_sequence="GGGFGYQKTKK [DDX18_Y643]" assay_endpoint="phosphorylation enrichment" readout_value=0.52
query_sequence="TKQLTYEEQYL [PIK3C3_Y310_D314Y]" assay_endpoint="phosphorylation enrichment" readout_value=1.18
query_sequence="RLEGVYRNNID [PTEN_Y46]" assay_endpoint="phosphorylation enrichment" readout_value=0.889
query_sequence="PPGRSYSPYDY [TNS1_Y793]" assay_endpoint="phosphorylation enrichment" readout_value=1.38
query_sequence="CTTIHYNYMCK [TP53_Y234_N239K]" assay_endpoint="phosphorylation enrichment" readout_value=0.826
query_sequence="FGSLLYKYAFK [FANCD2_Y458]" assay_endpoint="phosphorylation enrichment" readout_value=1.04
query_sequence="HRGCLYLAIEY [TEK_Y899_Y897C]" assay_endpoint="phosphorylation enrichment" readout_value=2.3
query_sequence="LEITWYPFDME [RIPOR2_Y316_V320M]" assay_endpoint="phosphorylation enrichment" readout_value=2.31
query_sequence="RLCQDYDIIGP [ANK1_Y1073_T1075I]" assay_endpoint="phosphorylation enrichment" readout_value=1.26
query_sequence="CKQGKYLNWDA [ATM_Y54_S49C]" assay_endpoint="phosphorylation enrichment" readout_value=0.839
query_sequence="GKFFQYDTWKQ [IGF2_Y116]" assay_endpoint="phosphorylation enrichment" readout_value=0.852
query_sequence="NFADPYRQLQF [CTNND2_Y503_YF]" assay_endpoint="phosphorylation enrichment" readout_value=0.826
query_sequence="QNTADYFDLFG [PTPN11_Y62_G60A_YF]" assay_endpoint="phosphorylation enrichment" readout_value=1.53
query_sequence="FEELVYETVRV [FSHB_Y76_K72E]" assay_endpoint="phosphorylation enrichment" readout_value=6.25
query_sequence="MAPQMYEFHLP [NCAPD2_Y6]" assay_endpoint="phosphorylation enrichment" readout_value=0.766
